Where these numbers come from: PubChem BioAssay AID1159580

Protocol Notes: chemical genetic growth profiling, strain panel (AID 1159580);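 also: tested at 20 µM; growth read once vehicle control cultures reached saturation at 30 °C; 1 = growth at the plate median or of vehicle wells; lower values mean less growth of the strain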
Applied Conditions: S. cerevisiae deletion strains, growth OD, locus YLR330W, strain CHS5
Out of some 5,500 compounds screened, about 2,000 (36%) were called active. Inconclusive results (about 18%) are left out. Rule as the data show it: active = normalized growth mostly below about 0.91 (no sharp cut-off); inconclusive = no clear call, values can overlap the other calls; inactive = mostly above about 0.92. This is one part of the list.
API: response.call in 1.0 = active, 0.0 = inactive

Hi, sorry to bother you, what did the test record for `Oc1c(Cl)cc(Cl)c(Cl)c1Cc1c(O)c(Cl)cc(Cl)c1Cl` ?
1.0

Hi, sorry to bother you, what did the test record for `O=C(O)COc1ccc(Cl)cc1Cl` ?
0.0

Hi, sorry to bother you, what did the test record for CC(=O)C1CC[C@H]2C3CC[C@H]4C[C@H](O)CC[C@]4(C)C3CC[C@]12C (some centres not stated) ?
0.0

Hi, sorry to bother you, what did the test record for `CC(=O)O[C@]1(C)CC[C@@]23CC1C(C)(C)[C@@H]2CC[C@H]3C` ?
0.0

Hi, sorry to bother you, what did the test record for `Cc1nnc(NS(=O)(=O)c2ccc(N)cc2)s1` ?
0.0

Hi, sorry to bother you, what did the test record for `COc1ccc2c(=O)c(OC)c(-c3ccccc3)oc2c1` ?
1.0

Hi, sorry to bother you, what did the test record for CC(=O)C1CCC2C3CCC4C[C@H](O)CCC4(C)C3C[C@H](O)C12C (some centres not stated) ?
0.0

Hi, sorry to bother you, what did the test record for CC1CCC(NC(=O)N(CCCl)N=O)CC1 (configuration not stated) ?
0.0

Hi, sorry to bother you, what did the test record for C[C@]12CCC3c4ccc(O)cc4CCC3C1CCC2=O (some centres not stated) ?
0.0

Hi, sorry to bother you, what did the test record for CCCCCCCCCCCC(=O)OCC(COP(=O)(O)OCC(O)COP(=O)(O)OCC(COC(=O)CCCCCCCCCCC)OC(=O)CCCCCCCCCCC)OC(=O)CCCCCCCCCCC (configuration not stated) ?
0.0

Hi, sorry to bother you, what did the test record for CN[C@@H]1C(OC2[C@H](O[C@H]3[C@H](O)[C@@H](O)[C@H](N=C(N)N)[C@@H](O)[C@@H]3N=C(N)N)OC(C)[C@]2(O)CO)OC(CO)C(O)C1O (some centres not stated) ?
0.0

Hi, sorry to bother you, what did the test record for C[C@]12CCC3c4ccc(OC(=O)c5ccccc5)cc4CCC3C1CCC2=O (some centres not stated) ?
0.0

---

Protocol Notes: chemical genetic growth profiling, strain panel (AID 1159580);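 also: tested at 20 µM; growth read once vehicle control cultures reached saturation at 30 °C; 1 = growth at the plate median or of vehicle wells; lower values mean less growth of the strain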
Applied Conditions: S. cerevisiae deletion strains, growth OD, locus YDR052C, strain DBF4, active compounds read low
The campaign covered roughly 5,500 compounds. About 2,000 (36%) were called active. Roughly 18% stayed inconclusive and do not appear here. The list shows a part of the results.
Please provide measured normalized growth for the entries that follow.
Returns: the value as a bare number; no unit string appended.

Please supply the value of reported normalized growth for the item `O=C(Oc1ccc2ccccc2c1C1SCCS1)c1ccc([N+](=O)[O-])o1`
0.973

Please supply the value of reported normalized growth for the item `Clc1ccccc1-c1csc(-c2ccncc2)n1`
0.977

Please supply the value of reported normalized growth for the item `COc1ccc(-c2cn3cc(C)ccc3n2)cc1`
0.985

Please supply the value of reported normalized growth for the item `N/C(=N/O)c1ccc(Oc2ccc(C3SCCS3)cc2)c([N+](=O)[O-])c1`
0.992

Please supply the value of reported normalized growth for the item `O=S(=O)(NCc1ccc(C(F)(F)F)cc1)c1cc(Br)c(Br)s1`
0.979

Please supply the value of reported normalized growth for the item `Clc1ccccc1-c1csc(-c2cccnc2)n1`
0.917

Please supply the value of reported normalized growth for the item `CN(C)c1ccc(/C=C/c2ccc3ccccc3[n+]2C)cc1`
0.954

Please supply the value of reported normalized growth for the item CC1C(c2ccccc2)N(C)C(c2ccccc2)CC1(O)c1ccc(F)cc1 (stereo unspecified)
0.995

Please supply the value of reported normalized growth for the item `O=S(=O)(NCc1ccc(C(F)(F)F)cc1)c1cccc(C(F)(F)F)c1`
0.987

Please supply the value of reported normalized growth for the item `N#Cc1cccc(CSc2nc3ccc(C(F)(F)F)cc3[nH]2)c1`
0.962

Please supply the value of reported normalized growth for the item `O=[N+]([O-])c1ccsc1Oc1cccc(C(F)(F)F)c1`
0.989
